Assay: NCI Yeast Anticancer Drug Screen. Data for the mec2-1 strain (AID 157)
Details: S. cerevisiae mec2-1 strain, at 50.0 µM, active compounds read high
Procedure: Growth inhibition of yeast strains with defined genetic alterations is measured as a screen for potential anti-cancer activity. Selected strains with alterations in DNA damage repair or cell cycle control were exposed to compounds and growth inhibition was measured relative to vehicle treated controls. The strain used in this assay is mec2-1
This is part of a sample that, as a whole, favours compounds with a hit. Of some 79,000 tested, about 15% had one in any assay.
PROPERTY_LABEL: growth inhibition (%)

| COMPOUND | QUANTITY_UNIT | OBS_VALUE |
| --- | --- | --- |
| C[N+]12CCC34c5ccccc5NC3C3C(CC(=O)[O-])OCC=C(C1)C3CC42 (stereo unspecified) | % | -45 |
| CCCN1CCc2cc(OC)c(OC)cc2C1Cc1ccc(OC)c(OC)c1 (stereo unspecified) | % | -0.2 |
| CCOC(=O)C(=O)C(CCC(=O)c1ccc2ccccc2c1O)C(=O)OCC (stereo unspecified) | % | -1.65 |
| COc1ccc(C(C#N)N2CCOCC2)cc1 (stereo unspecified) | % | -11.7 |
| COc1ccc(-c2nc3ccccc3c(=S)n2OC(C)=O)cc1 | % | 77.2 |
| CCN(CC)CCN(C)CC(=O)Nc1ccccc1C | % | 6.3 |

meta.source: PubChem BioAssay (NCI)
